target: HIV-1 Env of KER2018.11 (HIV-1); assay: cell-based or functional assay
recordedEndpoint: neutralization IC50 (µg/mL)
Give bare numbers, in µg/mL.

For the binder CAP256-VRC26.02 (antibody, V domains shown) VH: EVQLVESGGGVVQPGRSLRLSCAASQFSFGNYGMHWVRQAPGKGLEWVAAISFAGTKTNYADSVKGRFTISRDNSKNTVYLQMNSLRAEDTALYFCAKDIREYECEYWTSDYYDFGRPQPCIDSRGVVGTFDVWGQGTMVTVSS VL: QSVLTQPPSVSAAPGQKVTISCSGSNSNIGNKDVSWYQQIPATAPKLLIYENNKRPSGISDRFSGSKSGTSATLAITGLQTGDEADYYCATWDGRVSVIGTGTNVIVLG , what neutralization IC50 is on record?
0.18
